# System: Mycobacterium tuberculosis
# Method summary: Antimycobacterial activity against Mycobacterium tuberculosis H37Rv ATCC 27294 in GAS medium after 1 week by microplate alamar blue assay
# Format: functional
# Measurement setup: H37Rv ATCC 27294, 168 h
Some compounds, each annotated with its measured MIC.
Quick note: give the figure in µM, leave out the unit.

* COc1ccc(-c2nc(C(=O)OCc3ccccc3)co2)cc1F | 5.55

Next compound, please.
Problem: Param readout= MIC; system= Mycobacterium tuberculosis; entry= O=C(OCc1ccccc1)[C@@H]1COC(c2cncc(-c3ccccc3)c2)=N1 ; returns value.
Solution: 12.5

* * *

# System: Mycobacterium tuberculosis
# Method summary: Antimycobacterial activity against Mycobacterium tuberculosis H37Rv ATCC 27294 in GAST medium after 1 week by microplate alamar blue assay
# Type: functional
# Measurement setup: H37Rv ATCC 27294, 168 h
Some compounds, each annotated with its measured MIC.
Quick note: give the figure in µM, leave out the unit.

Example results:
• COc1ccc(C2=N[C@H](C(=O)OCc3ccccc3)CO2)cc1Cl = 7.58
• Cc1oc(-c2ccc(F)cc2[N+](=O)[O-])nc1C(=O)OCc1ccccc1 = 4.62
• COc1ccc(-c2nc(C(=O)OCc3ccccc3)c(C)o2)cc1 = 15.8
• O=C(OCc1ccccc1)[C@@H]1COC(c2ccccc2Cl)=N1 = 15.2
• N#Cc1cccc(-c2nc(C(=O)OCc3ccccc3)co2)c1 = 60.5

Problem: Param readout= MIC; system= Mycobacterium tuberculosis; entry= COc1ccccc1-c1nc(C(=O)OCc2ccccc2)co1 ; returns value.
Solution: 7.54

Value source: ChEMBL document CHEMBL1157845
